measurement-conditions: in ethyl acetate, 288.15 K
test-readout: solubility (mole fraction)

[[record]]
compound = "Cc1ccc(S(=O)(=O)NC(=O)NN2CC3CCCC3C2)cc1 (stereo unspecified)"
observed_value = 0.00212


----------
measurement-conditions: in acetone, 303.15 K
test-readout: solubility (mole fraction)

[[record]]
molecule = "Cc1ccc(S(=O)(=O)NC(=O)NN2CC3CCCC3C2)cc1 (stereo unspecified)"
observed_value = 0.0191


----------
measurement-conditions: in methyl acetate, 303.15 K
test-readout: solubility (mole fraction)

[[record]]
compound = "Cc1ccc(S(=O)(=O)NC(=O)NN2CC3CCCC3C2)cc1 (stereo unspecified)"
observed_value = 0.00588

